MEASUREMENT_TARGET: Sodium-dependent serotonin transporter (Homo sapiens)
Sequence (P31645 whole entry): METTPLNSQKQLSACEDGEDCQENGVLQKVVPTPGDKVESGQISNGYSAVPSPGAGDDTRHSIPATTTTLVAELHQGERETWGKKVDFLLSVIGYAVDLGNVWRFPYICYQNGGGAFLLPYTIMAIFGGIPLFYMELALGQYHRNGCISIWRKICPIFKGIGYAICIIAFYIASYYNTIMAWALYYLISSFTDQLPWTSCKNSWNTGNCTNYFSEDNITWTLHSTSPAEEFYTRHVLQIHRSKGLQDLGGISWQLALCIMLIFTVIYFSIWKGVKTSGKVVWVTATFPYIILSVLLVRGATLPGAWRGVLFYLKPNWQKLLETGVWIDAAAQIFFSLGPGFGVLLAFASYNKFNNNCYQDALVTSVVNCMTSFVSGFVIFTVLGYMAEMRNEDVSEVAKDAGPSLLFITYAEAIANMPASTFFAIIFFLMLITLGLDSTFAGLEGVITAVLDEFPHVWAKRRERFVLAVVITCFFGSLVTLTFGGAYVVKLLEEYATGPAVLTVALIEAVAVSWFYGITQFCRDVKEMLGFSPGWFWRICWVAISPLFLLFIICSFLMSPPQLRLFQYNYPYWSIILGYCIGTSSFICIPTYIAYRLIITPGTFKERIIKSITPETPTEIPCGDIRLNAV
METHOD_NOTES: Inhibition of [3H]serotonin uptake at human SERT expressed in HEK293 cells after 10 min by scintillation counting
EXPERIMENTAL_READOUT: IC50 (nM)

| MOLECULE | EXPERIMENTAL_READOUT | VAL |
| --- | --- | --- |
| COc1ccc2cc(C(O)CCN3CCC(O)(Cc4ccccc4)CC3)ccc2c1Cl (racemic) | IC50 | 427 |
| COc1ccc2cc([C@H](O)[C@H](C)N3CCC(O)(Cc4ccccc4)CC3)ccc2c1Cl (racemic) | IC50 | 357 |
| COc1ccc2cc(C(O)CCN3CC=C(Cc4ccccc4)CC3)ccc2c1Cl (racemic) | IC50 | 265 |
| OC(CCN1CCC(O)(Cc2ccccc2)CC1)c1ccc(Cl)c(Cl)c1 (racemic) | IC50 | 337 |

1. C[C@@H]([C@@H](O)c1ccc(Cl)c(Cl)c1)N1CC=C(Cc2ccccc2)CC1 (racemic)
2. OC(CCN1CC=C(Cc2ccccc2)CC1)c1cc2ccccc2s1 (racemic)
Lab log: flag the item ( 1 or 2 ) with the smaller IC50 figure. In your reply, give the label of the chosen option. 2
(2: 255 nM, 1: 367 nM)

---

MEASUREMENT_TARGET: Sodium-dependent noradrenaline transporter (Homo sapiens, UniProt P23975)
Sequence (P23975 whole entry): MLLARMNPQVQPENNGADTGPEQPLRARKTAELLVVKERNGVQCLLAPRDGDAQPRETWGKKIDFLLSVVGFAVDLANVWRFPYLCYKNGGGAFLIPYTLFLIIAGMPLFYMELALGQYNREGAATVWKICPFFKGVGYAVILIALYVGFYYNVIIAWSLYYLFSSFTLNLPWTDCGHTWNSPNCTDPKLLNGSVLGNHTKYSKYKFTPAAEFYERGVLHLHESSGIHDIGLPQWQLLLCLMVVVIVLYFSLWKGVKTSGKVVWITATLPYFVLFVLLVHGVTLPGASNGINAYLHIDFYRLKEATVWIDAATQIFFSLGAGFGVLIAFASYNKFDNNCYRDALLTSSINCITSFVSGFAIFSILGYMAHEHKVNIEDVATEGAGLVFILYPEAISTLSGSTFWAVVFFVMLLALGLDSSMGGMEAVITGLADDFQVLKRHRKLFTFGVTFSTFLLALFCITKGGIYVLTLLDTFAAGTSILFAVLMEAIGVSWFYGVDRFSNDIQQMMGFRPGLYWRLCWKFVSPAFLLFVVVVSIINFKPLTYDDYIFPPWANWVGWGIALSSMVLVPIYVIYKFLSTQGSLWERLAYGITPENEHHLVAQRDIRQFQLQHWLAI
METHOD_NOTES: Inhibition of [3H]noradrenaline uptake at human NET expressed in HEK293 cells at 10 uM after 10 mins by scintillation counting
EXPERIMENTAL_READOUT: inhibition (%)

Example molecules with recorded inhibition:
| MOLECULE | VAL |
| --- | --- |
| OC(CCN1CC=C(Cc2ccccc2)CC1)c1cccs1 (racemic) | 82 |
| COc1ccc([C@H](O)[C@@H](C)N2CC=C(Cc3ccccc3)CC2)cc1 (racemic) | 62 |
| OC(CCN1CCC(O)(Cc2ccccc2)CC1)c1csc2ccccc12 (racemic) | 61 |

A. COc1ccc2cc([C@H](O)[C@H](C)N3CCC(O)(Cc4ccccc4)CC3)ccc2c1Cl (racemic)
B. Cc1ccc(C(O)CCN2CC=C(Cc3ccccc3)CC2)cc1 (racemic)
Lab log: flag the item ( A or B ) with the smaller inhibition figure. In your reply, give the label of the chosen option. A
(A: 55%, B: 83%)

---

MEASUREMENT_TARGET: Sodium-dependent noradrenaline transporter (Homo sapiens, UniProt P23975)
METHOD_NOTES: Inhibition of [3H]noradrenaline uptake at human NET expressed in HEK293 cells at 10 uM after 10 mins by scintillation counting
EXPERIMENTAL_READOUT: inhibition (%)

| COMPOUND | UNIT_DESCRIPTOR | inhibition |
| --- | --- | --- |
| COc1ccc2cc([C@H](O)[C@@H](C)N3CCC(O)(Cc4ccccc4)CC3)ccc2c1Cl (racemic) | % | 63 |
| COc1ccc(C(O)CCN2CC=C(Cc3ccccc3)CC2)cc1OC (racemic) | % | 63 |
| C[C@@H]([C@@H](O)c1cccc(F)c1)N1CC=C(Cc2ccccc2)CC1 (racemic) | % | 57 |
| O=[N+]([O-])c1ccc(C(O)CCN2CC=C(Cc3ccccc3)CC2)cc1 (racemic) | % | 74 |

1. OC(CCN1CC=C(Cc2ccccc2)CC1)c1ccc(F)cc1F (racemic)
2. OC(CCN1CC=C(Cc2ccccc2)CC1)c1ccc(Cl)cc1 (racemic)
Lab log: flag the item ( 1 or 2 ) with the smaller inhibition figure. In your reply, give the label of the chosen option. 2
